Ref: ChEMBL document CHEMBL5724914

test: The drug is tested on WLS-077 corresponding to human gut metagenome with ENA study accession number: PRJEB37062 and ENA sample accession number: ERS12561750 for biotransformation under anaerobic condition. The drug concentrations were measured over 9 timepoints collected between 0 and 24 hours of incubation by liquid-chromatography-coupled mass spectrometry (LC–MS); settings: 2 µM; note: call rule not given here
Measurement name: Bacterial Biotransformation

Compound	Measurement name	Observed measurement
CN(C(=O)CN(CCO)CC(=O)N(C)C(C)(C)Cc1ccccc1)C(C)(C)Cc1ccccc1	Bacterial Biotransformation	Compound metabolized
CN1C[C@H](C(=O)N[C@]2(C)O[C@@]3(O)[C@@H]4CCCN4C(=O)[C@H](Cc4ccccc4)N3C2=O)C=C2c3cccc4[nH]cc(c34)C[C@H]21.CN1C[C@H](C(=O)N[C@]2(C)O[C@@]3(O)[C@@H]4CCCN4C(=O)[C@H](Cc4ccccc4)N3C2=O)C=C2c3cccc4[nH]cc(c34)C[C@H]21.O=C(O)C(O)C(O)C(=O)O [ERGOTAMINE TARTRATE]	Bacterial Biotransformation	Compound metabolized

----------
settings: human gut metagenome, 24 h, 2 µM
Measurement name: Bacterial Biotransformation

Compound	Measurement name	Observed measurement
CC(C)NCC(O)COc1ccc(CCOCC2CC2)cc1 (centres undefined) [BETAXOLOL]	Bacterial Biotransformation	Compound NOT metabolized
CC(Oc1c(Cl)cccc1Cl)C1=NCCN1 (centres undefined) [LOFEXIDINE]	Bacterial Biotransformation	Compound NOT metabolized
CCc1nn(CCCN2CCN(c3cccc(Cl)c3)CC2)c(=O)n1CCOc1ccccc1 [NEFAZODONE]	Bacterial Biotransformation	Compound metabolized
CN(C)C(=O)C(CCN1CCC(O)(c2ccc(Cl)cc2)CC1)(c1ccccc1)c1ccccc1 [LOPERAMIDE]	Bacterial Biotransformation	Compound metabolized
CCN(CC)C(C)CN1c2ccccc2Sc2ccccc21 (centres undefined) [ETHOPROPAZINE]	Bacterial Biotransformation	Compound metabolized
Cc1nc2n(c(=O)c1CCN1CCC(c3noc4cc(F)ccc34)CC1)CCCC2 [RISPERIDONE]	Bacterial Biotransformation	Compound metabolized
CCC1(c2ccc(N)cc2)CCC(=O)NC1=O (centres undefined) [AMINOGLUTETHIMIDE]	Bacterial Biotransformation	Compound NOT metabolized
CCC(COC(=O)c1cc(OC)c(OC)c(OC)c1)(c1ccccc1)N(C)C.O=C(O)/C=C\C(=O)O (centres undefined)	Bacterial Biotransformation	Compound NOT metabolized
OCCN1CCN(CCCN2c3ccccc3Sc3ccc(C(F)(F)F)cc32)CC1 [FLUPHENAZINE]	Bacterial Biotransformation	Compound metabolized

----------
details: human gut metagenome, 24 h, 2 µM
Measurement name: Bacterial Biotransformation

Compound	Measurement name	Observed measurement
O=C(Nc1ccccc1)OCC(CN1CCCCC1)OC(=O)Nc1ccccc1 (stereo not drawn)	Bacterial Biotransformation	Compound metabolized
CC(=O)OCC(=O)[C@@]1(O)[C@@H](C)C[C@H]2[C@@H]3CCC4=CC(=O)C=C[C@]4(C)[C@@]3(F)[C@@H](O)C[C@@]21C [BETAMETHASONE ACETATE]	Bacterial Biotransformation	Compound metabolized
CN(C)CC(c1ccc(O)cc1)C1(O)CCCCC1.O=C(O)CCC(=O)O (stereo not drawn) [DESVENLAFAXINE SUCCINATE]	Bacterial Biotransformation	Compound NOT metabolized
CC[C@@H](CO)NC(=O)[C@@H]1C=C2c3cccc4c3c(cn4C)C[C@H]2N(C)C1.O=C(O)/C=C\C(=O)O [METHYSERGIDE MALEATE]	Bacterial Biotransformation	Compound metabolized
CNC(=C[N+](=O)[O-])NCCSCc1csc(CN(C)C)n1	Bacterial Biotransformation	Compound metabolized
COc1ccc(CCN(C)CCCC(C#N)(c2ccc(OC)c(OC)c2)C(C)C)cc1OC (stereo not drawn)	Bacterial Biotransformation	Compound metabolized
CC(C)(Oc1ccc(CCNC(=O)c2ccc(Cl)cc2)cc1)C(=O)O [BEZAFIBRATE]	Bacterial Biotransformation	Compound metabolized
COc1ccccc1OCC(O)COC(N)=O (stereo not drawn)	Bacterial Biotransformation	Compound NOT metabolized
